System: multidrug-resistant clinical isolate H. pylori 2CML
assay.comment: Antimicrobial activity alone and in combination with antibiotics, checkerboard method
Type: cell-based, Helicobacter pylori
condition.context: Helicobacter pylori; H. pylori 2CML, single agent; read-out: MIC Alone
Method: Combination of drugs against H. pylori 2CML A multidrug-resistant clinical isolate H. pylori 2CML from the collection of the Department of Microbiology, Wrocław Medical University)S7 was used to assess the antimicrobial activity of compounds 1 and 4m, in combination with Clarithromycin, Metronidazole, and Levofloxacin (Sigma-Aldrich). […] The minimum inhibitory concentration (MIC) was determined as the lowest concentration in which no microbial growth was observed . […]
quantity.name: MIC
Lab note: write values as number then unit, every time.

In: Please look up its MIC: Cc1ncc([N+](=O)[O-])n1CCO [Metronidazole]
Out: 64 µg/mL

In: Please look up its MIC: C[C@H]1COc2c(N3CCN(C)CC3)c(F)cc3c(=O)c(C(=O)O)cn1c23 [Levofloxacin]
Out: 16 µg/mL

In: Please look up its MIC: O=c1c2ccccc2[se]n1-c1ccccc1 [compound 1, N-phenyl-1,2-benzisoselenazol-3(2H)-one]
Out: 0.857 µg/mL

In: Please look up its MIC: CC[C@H]1OC(=O)[C@H](C)[C@@H](O[C@H]2C[C@@](C)(OC)[C@@H](O)[C@H](C)O2)[C@H](C)[C@@H](O[C@@H]2O[C@H](C)C[C@H](N(C)C)[C@H]2O)[C@](C)(OC)C[C@@H](C)C(=O)[C@H](C)[C@@H](O)[C@]1(C)O [Clarithromycin]
Out: 16 µg/mL
